From: ChEMBL document CHEMBL1138625

Kindly supply the reported pEC50 values for the records listed here.
- measurement.target: Beta-1 adrenergic receptor (Homo sapiens) (UniProt P08588)
- test.details: Agonist activity at human adrenergic receptor expressed in CHO cells assessed as cAMP accumulation
Numbers only, as −log10 of the molar value.

O=C(Cc1nccn1Cc1ccc(Br)cc1)Nc1ccc(CCNC[C@H](O)COc2ccccc2)cc1 :: 7.15

Read the next record carefully.
[ask] # query: pEC50 of entry O=C(Cc1ccccn1)Nc1ccc(CCNC[C@H](O)COc2ccc(O)cc2)cc1
[reply] 5.57

---

pEC50: −log10 of the molar value.
Parameter pEC50, tested on Beta-2 adrenergic receptor (Homo sapiens, UniProt P07550), listed per item.
Sequence (P07550 whole entry): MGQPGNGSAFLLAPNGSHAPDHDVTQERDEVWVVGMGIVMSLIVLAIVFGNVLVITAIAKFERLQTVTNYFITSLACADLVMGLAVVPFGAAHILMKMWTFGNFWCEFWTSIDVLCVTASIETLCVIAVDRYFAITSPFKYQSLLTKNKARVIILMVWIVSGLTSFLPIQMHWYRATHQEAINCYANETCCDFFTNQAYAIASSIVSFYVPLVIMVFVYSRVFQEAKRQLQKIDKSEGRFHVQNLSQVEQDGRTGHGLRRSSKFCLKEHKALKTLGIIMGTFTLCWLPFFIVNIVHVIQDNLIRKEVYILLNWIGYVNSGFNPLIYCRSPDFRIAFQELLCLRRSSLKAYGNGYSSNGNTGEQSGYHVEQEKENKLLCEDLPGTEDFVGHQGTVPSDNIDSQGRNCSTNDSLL

Example entries and their recorded answers appear below.
O=C(Cc1nc2ccccc2n1Cc1ccccc1)Nc1ccc(CCNC[C@H](O)COc2ccccc2)cc1 :: < 4.00
O=C(Cc1nccn1Cc1ccc(Br)cc1)Nc1ccc(CCNC[C@H](O)COc2ccccc2)cc1 :: < 4.00
O=C(Cc1nccn1Cc1ccccc1)Nc1ccc(CCNC[C@H](O)COc2ccccc2)cc1 :: < 4.00
CS(=O)(=O)Nc1ccc(OC[C@@H](O)CNCCc2ccc(NC(=O)Cc3ccccn3)cc2)cc1 :: < 4.00
O=C(Cc1ccccn1)Nc1ccc(CCNC[C@H](O)COc2ccc(O)cc2)cc1 :: < 4.00

Quick one: give me pEC50 for each item below, same order please.
1. CC(Cc1ccc(NC(=O)Cc2nccn2Cc2ccccc2)cc1)NC[C@H](O)COc1ccccc1 (stereo in doubt; 27b)
2. Cc1cc(C)nc(CC(=O)Nc2ccc(CCNC[C@H](O)COc3ccccc3)cc2)c1
3. CC(Cc1ccc(NC(=O)Cc2nccn2Cc2ccccc2)cc1)NC[C@H](O)COc1ccccc1 (single isomer, unassigned; diastereomer I)
4. O=C(Cc1nccn1Cc1ccc2ccccc2c1)Nc1ccc(CCNC[C@H](O)COc2ccccc2)cc1
5. O=C(Cc1nccn1Cc1ccccc1)N1CCCc2cc(CCNC[C@H](O)COc3ccccc3)ccc21
6. O=C(Cc1ccccn1)Nc1ccc(CCNC[C@H](O)COc2cccnc2)cc1
7. O=C(Cc1nccn1Cc1ccc(Cl)cc1)Nc1ccc(CCNC[C@H](O)COc2ccccc2)cc1

[reply]
["< 4.00", "< 4.00", 7.57, "< 4.00", "< 4.00", "< 4.00", "< 4.00"]

Provide pEC50 values for the following items, in order.
1. O=C(Cc1cn(Cc2ccccc2)cn1)Nc1ccc(CCNC[C@H](O)COc2ccccc2)cc1
2. CN(C(=O)Cc1nccn1Cc1ccccc1)c1ccc(CCNC[C@H](O)COc2ccccc2)cc1
3. O=C(Cc1ccccn1)Nc1ccc(CCNC[C@H](O)COc2cccc3[nH]ccc23)cc1

[reply]
< 4.00
< 4.00
< 4.00

Field: pEC50. Fill in for each record below.
1. CCCN(C(=O)Cc1nccn1Cc1ccccc1)c1ccc(CCNC[C@H](O)COc2ccccc2)cc1
2. O=C(Cc1cccc(Cl)n1)Nc1ccc(CCNC[C@H](O)COc2ccccc2)cc1
3. O=C(Cc1ncc[nH]1)Nc1ccc(CCNC[C@H](O)COc2ccccc2)cc1
4. O=C(Cc1ccccn1)Nc1ccc(CCNC[C@H](O)COc2cccc3[nH]c4ccccc4c23)cc1

[reply]
< 4.00
< 4.00
< 4.00
< 4.00
